Attribution: patent US20220025021A1

- system under test: HIV-1 Env of pseudovirus RHPA4259.7 (HIV-1)
- assay comment: cell-based or functional assay
measured endpoint: neutralization IC80 (µg/mL)
Write it as a number; the unit µg/mL goes unstated.

Below are worked cases with known answers.
binder | neutralization IC80 / µg/mL
MS-91 (antibody, V domains shown) VH: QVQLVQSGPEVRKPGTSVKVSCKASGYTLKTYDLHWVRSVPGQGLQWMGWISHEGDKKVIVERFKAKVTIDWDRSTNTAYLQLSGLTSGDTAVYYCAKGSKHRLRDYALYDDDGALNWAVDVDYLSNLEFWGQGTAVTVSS VL: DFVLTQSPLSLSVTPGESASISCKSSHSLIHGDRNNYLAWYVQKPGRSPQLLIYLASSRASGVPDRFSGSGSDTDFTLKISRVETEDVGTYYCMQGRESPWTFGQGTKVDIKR | 1.82
MS-89 (antibody, V domains shown) VH: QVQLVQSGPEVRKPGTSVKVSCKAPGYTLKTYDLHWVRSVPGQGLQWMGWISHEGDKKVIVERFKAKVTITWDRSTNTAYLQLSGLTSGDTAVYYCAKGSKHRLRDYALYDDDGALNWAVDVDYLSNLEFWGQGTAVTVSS VL: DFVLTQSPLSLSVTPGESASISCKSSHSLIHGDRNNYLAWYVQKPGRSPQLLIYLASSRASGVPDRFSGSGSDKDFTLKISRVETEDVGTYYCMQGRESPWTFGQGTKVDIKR | 1.04
MS-77 (antibody, V domains shown) VH: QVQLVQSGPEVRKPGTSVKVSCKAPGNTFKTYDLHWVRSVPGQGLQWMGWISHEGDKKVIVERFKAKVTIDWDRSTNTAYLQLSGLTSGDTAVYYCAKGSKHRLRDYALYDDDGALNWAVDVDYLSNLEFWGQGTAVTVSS VL: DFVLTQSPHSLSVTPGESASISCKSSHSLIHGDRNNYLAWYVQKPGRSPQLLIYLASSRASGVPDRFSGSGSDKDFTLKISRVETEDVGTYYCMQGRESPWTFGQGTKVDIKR | 0.734

Look at this binder and give its reported neutralization IC80. MS-80 (antibody, V domains shown) VH: QVQLVQSGPEVRKPGTSVKVSCKAPGNTLKTYDLHWVRSVPGQGLQWMGWISHEGDKKVIVERFKAKVTIDRDRSTNTAYLQLSGLTSGDTAVYYCAKGSKHRLRDYALYDDDGALNWAVDVDYLSNLEFWGQGTAVTVSS VL: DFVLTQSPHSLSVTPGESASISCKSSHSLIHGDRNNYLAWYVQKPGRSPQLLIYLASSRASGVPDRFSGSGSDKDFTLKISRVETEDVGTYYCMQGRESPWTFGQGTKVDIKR
1.24

Thanks! And MS-87 (antibody, V domains shown) VH: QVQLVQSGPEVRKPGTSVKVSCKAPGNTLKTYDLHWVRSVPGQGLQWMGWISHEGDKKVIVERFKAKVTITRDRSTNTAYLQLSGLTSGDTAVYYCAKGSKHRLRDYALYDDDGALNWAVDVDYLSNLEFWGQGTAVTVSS VL: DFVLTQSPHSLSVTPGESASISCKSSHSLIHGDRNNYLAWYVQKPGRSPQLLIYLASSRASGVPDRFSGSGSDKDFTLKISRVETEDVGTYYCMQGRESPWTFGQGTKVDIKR ?
1.09
